- TESTED TARGET: thymidylate synthase (TS) (Mus musculus, UniProt P07607)
- Construct: A crude fraction of TS was prepared from Meth A fibrosarcoma (Meth A) cells subcultured in vitro; endogenous in cells
- Sequence (P07607 whole entry): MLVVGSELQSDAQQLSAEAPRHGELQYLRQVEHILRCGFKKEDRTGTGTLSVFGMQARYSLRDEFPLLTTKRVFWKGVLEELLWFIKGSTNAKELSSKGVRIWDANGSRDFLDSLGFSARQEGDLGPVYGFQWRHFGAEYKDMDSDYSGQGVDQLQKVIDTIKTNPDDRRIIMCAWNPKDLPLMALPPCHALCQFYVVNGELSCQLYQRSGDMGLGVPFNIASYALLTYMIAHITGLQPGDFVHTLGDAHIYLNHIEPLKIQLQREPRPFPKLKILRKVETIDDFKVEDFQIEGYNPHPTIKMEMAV
- PROTOCOL NOTES: Assay of TS inhibitory activity
- MEASUREMENT PARAMETERS: crude TS fraction from Meth A cells; [H³]dUMP, 37°C, 1 hour; read-out: TS inhibitory activity IC₅₀
MEASUREMENT TYPE: IC50 (nM)
Form entry: value (nM) — number only.

Please review the entries below; each comes with its answer.
COMPOUND: Nc1nc(O)c2c(C(C[N+](=O)[O-])c3ccc(C(=O)N[C@@H](CCC(=O)O)C(=O)O)cc3)c[nH]c2n1 (stereo partly drawn)
MEASUREMENT TYPE: IC50
UNITS: nM
OBSERVED VALUE: 590
//
COMPOUND: Nc1nc(O)c2c(Cc3ccc(C(=O)N[C@@H](CCC(=O)O)C(=O)O)cc3F)c[nH]c2n1
MEASUREMENT TYPE: IC50
UNITS: nM
OBSERVED VALUE: 490
//
COMPOUND: C=CC(c1ccc(C(=O)N[C@@H](CCC(=O)O)C(=O)O)cc1)c1c[nH]c2nc(N)nc(O)c12 (stereo partly drawn)
MEASUREMENT TYPE: IC50
UNITS: nM
OBSERVED VALUE: 37

For record CC(c1ccc(C(=O)N[C@@H](CCC(=O)O)C(=O)O)cc1)c1c[nH]c2nc(N)nc(O)c12 (stereo partly drawn) the listed IC50 is 39

For record Nc1nc2[nH]cc(Cc3ccc(C(=O)N[C@@H](CCC(=O)O)C(=O)O)s3)c2c(=O)[nH]1 the listed IC50 is 83

For record Cn1cc(Cc2ccc(C(=O)N[C@@H](CCC(=O)O)C(=O)O)cc2)c2c(O)nc(N)nc21 the listed IC50 is 860
